Consider the following molecules; for each one, report its Bliss excess.
System: OPM-2 (Plasma Cell Myeloma);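 further: after 72 h of two-drug dosing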
Protocol Text: Bliss excess, mean over the matrix (fraction); higher = more synergy

Query: Give me measured Bliss excess, please, for this molecule: COc1nnc2ccc(N3CCC(c4ccc(OCCN5CCN(C)C(=O)[C@H]5C)cc4)CC3)nn12 [AZD5153] + CCN(CCO)CCCOc1ccc2c(Nc3cc(CC(=O)Nc4cccc(F)c4)[nH]n3)ncnc2c1 [AZD2811] (first compound max 1 µM, 7x7, partner max 1 µM)
Reply: 0.0194

Query: Provide one value: measured Bliss excess of C[C@@H]1COCCN1c1cc(C2([S@](C)(=N)=O)CC2)nc(-c2ccnc3[nH]ccc23)n1 [AZD6738] + C1CC(C1)(C(=O)[O-])C(=O)[O-].N.N.[Pt+2] [Carboplatin] (first compound max 10 µM, 7x7, partner max 10 µM)
Reply: -0.051

Query: Provide one value: measured Bliss excess of Cn1cnc2c(F)c(Nc3ccc(Br)cc3Cl)c(C(=O)NOCCO)cc21 [Selumetinib] + CCN(CCO)CCCOc1ccc2c(Nc3cc(CC(=O)Nc4cccc(F)c4)[nH]n3)ncnc2c1 [AZD2811] (first compound max 10 µM, 7x7, partner max 1 µM)
Reply: 0.0243

Query: Read the entry Cc1nc(-c2cn3c(n2)-c2ccc(-c4cnn(C(C)(C)C(N)=O)c4)cc2OCC3)n(C(C)C)n1 [Taselisib] + O=C(Nc1ccc2[nH]nc(-c3ccncc3)c2c1)[C@@H]1CCN(CC(=O)N2CCN(c3ccc(-c4ncccn4)cc3)CC2)C1 [SCH772984] (first compound max 10 µM, 7x7, partner max 5 µM) and write its reported Bliss excess.
Reply: 0.0779

Query: Supply Bliss excess value. Item: CC1(C)CCC(CN2CCN(c3ccc(C(=O)NS(=O)(=O)c4ccc(NCC5CCOCC5)c([N+](=O)[O-])c4)c(Oc4cnc5[nH]ccc5c4)c3)CC2)=C(c2ccc(Cl)cc2)C1 [Venetoclax] + Cn1cnc2c(F)c(Nc3ccc(Br)cc3Cl)c(C(=O)NOCCO)cc21 [Selumetinib] (first compound max 1 µM, 7x7, partner max 3 µM)
Reply: -0.0093

Query: Specify Bliss excess for NC1(C(=O)N[C@@H](CCO)c2ccc(Cl)cc2)CCN(c2ncnc3[nH]ccc23)CC1 [Capivasertib] + CC(=O)c1c(C)c2cnc(Nc3ccc(N4CCNCC4)cn3)nc2n(C2CCCC2)c1=O [Palbociclib] (first compound max 10 µM, 7x7, partner max 10 µM) and stop.
Reply: 0.0472

Query: Given the molecule C[C@@H](c1ccc2nccn2c1)n1nnc2ncc(-c3cnn(C)c3)nc21 [Savolitinib] + CC1(C)CCC(CN2CCN(c3ccc(C(=O)NS(=O)(=O)c4ccc(NCC5CCOCC5)c([N+](=O)[O-])c4)c(Oc4cnc5[nH]ccc5c4)c3)CC2)=C(c2ccc(Cl)cc2)C1 [Venetoclax] (first compound max 1 µM, 7x7, partner max 1 µM) , write its reported Bliss excess.
Reply: 0.0324
